Measured values drawn from ChEMBL document CHEMBL1149329 for this set.

Target: DNA topoisomerase II (Homo sapiens) (UniProt P11388+Q02880)
Experiment: Inhibition of human DNA Topoisomerase II mediated DNA cleavage through the stabilization of transient DAN/topoisomerase II cleavage complex
Type: protein assay
Provide the recorded Activity for the entries that follow.

Recorded results for 6 compounds are shown here.
COc1cc([C@@H]2c3cc4c(cc3[C@@H](NS(=O)(=O)N3CCN(C)CC3)[C@H]3COC(=O)[C@H]23)OCO4)cc(OC)c1O = 45
CCCCCCCCCCCCCCCCS(=O)(=O)N[C@@H]1c2cc3c(cc2[C@@H](c2cc(OC)c(O)c(OC)c2)[C@H]2C(=O)OC[C@@H]21)OCO3 = 0
COc1cc([C@@H]2c3cc4c(cc3[C@@H](NS(=O)(=O)CCCN)[C@H]3COC(=O)[C@H]23)OCO4)cc(OC)c1O = 45
COc1cc([C@@H]2c3cc4c(cc3[C@@H](NS(=O)(=O)N3CCOCC3)[C@H]3COC(=O)[C@H]23)OCO4)cc(OC)c1O = 31
COc1cc([C@@H]2c3cc4c(cc3[C@@H](NS(=O)(=O)CCCN=[N+]=[N-])[C@H]3COC(=O)[C@H]23)OCO4)cc(OC)c1O = 32
COc1cc([C@@H]2c3cc4c(cc3[C@@H](NS(=O)(=O)c3ccc(S(C)(=O)=O)cc3)[C@H]3COC(=O)[C@H]23)OCO4)cc(OC)c1O = 10

Measured Activity for this entry CCN(CC)S(=O)(=O)N[C@@H]1c2cc3c(cc2[C@@H](c2cc(OC)c(O)c(OC)c2)[C@H]2C(=O)OC[C@@H]21)OCO3 on DNA topoisomerase II (Homo sapiens) (UniProt P11388+Q02880): 24

* * *

Target: DNA topoisomerase II (Homo sapiens) (UniProt P11388+Q02880)
Test: Inhibition of human DNA Topoisomerase II mediated DNA cleavage through the stabilization of transient DAN/topoisomerase II cleavage complex
Assay type: protein assay
Respond with true for Activity values of 10 and above, false for values below.

Worked examples, 4 compounds total:
COc1cc([C@@H]2c3cc4c(cc3[C@@H](NS(=O)(=O)CCCCl)[C@H]3COC(=O)[C@H]23)OCO4)cc(OC)c1O = true
CCCCCCCCS(=O)(=O)N[C@@H]1c2cc3c(cc2[C@@H](c2cc(OC)c(O)c(OC)c2)[C@H]2C(=O)OC[C@@H]21)OCO3 = true
COc1cc([C@@H]2c3cc4c(cc3[C@@H](NS(=O)(=O)N3CCCCC3)[C@H]3COC(=O)[C@H]23)OCO4)cc(OC)c1O = true
COc1cc([C@@H]2c3cc4c(cc3[C@@H](NS(=O)(=O)c3c(F)c(F)c(F)c(F)c3F)[C@H]3COC(=O)[C@H]23)OCO4)cc(OC)c1O = false

Kindly consider the entry below.
// query Reported Activity at or above 10? COc1cc([C@@H]2c3cc4c(cc3[C@@H](NS(=O)(=O)c3cccs3)[C@H]3COC(=O)[C@H]23)OCO4)cc(OC)c1O
// result false

* * *

Biological target: DNA topoisomerase II (Homo sapiens) (UniProt P11388+Q02880)
Test: Inhibition of human DNA Topoisomerase II mediated DNA cleavage through the stabilization of transient DAN/topoisomerase II cleavage complex
Type: protein assay
measurement.name: Activity
Answers are plain numbers.

Completed entries (count: 2):
COc1cc([C@@H]2c3cc4c(cc3[C@@H](NS(=O)(=O)c3sc(NC(C)=O)nc3C)[C@H]3COC(=O)[C@H]23)OCO4)cc(OC)c1O = 7
COc1cc([C@@H]2c3cc4c(cc3[C@@H](NS(=O)(=O)c3ccc(N=[N+]=[N-])cc3)[C@H]3COC(=O)[C@H]23)OCO4)cc(OC)c1O = 9

The molecule listed as COc1cc([C@@H]2c3cc4c(cc3[C@@H](NS(=O)(=O)c3ccc(N)cc3)[C@H]3COC(=O)[C@H]23)OCO4)cc(OC)c1O has a reported Activity of 0
